System: HeLa MZ
Assay: whole-cell filipin (free cholesterol) integrated intensity, Z-score; higher = more cholesterol staining
Settings: compound concentration in added solution (µM; 5 µl added to 20 µl cells): 10; 18 h
Where a name gives a salt, the structure may show the parent alone.
Classes by whole-cell filipin (z-score): lo (below -0.4), med (-0.4 to below -0.04), hi (-0.04 or more)

Lab log: CN(CCOc1ccc(CC2SC(=O)NC2=O)cc1)c1ccccn1 (stereo not given) [Rosiglitazone Hydrochloride] — assign whole-cell filipin (z-score) category
hi

Please let me know in which category the item `COc1ccc(C(Cl)=C(c2ccc(OC)cc2)c2ccc(OC)cc2)cc1` belongs.
med

Input CCCNC(C)C(=O)Nc1c(C)csc1C(=O)OC (stereo not given) [Articaine hydrochloride] ; output its category
med

Given NS(=O)(=O)c1cc(C(=O)O)c(NCc2ccco2)cc1Cl [Furosemide] , name the class its whole-cell filipin (z-score) places it in.
lo

For this compound, which bin applies? `O=C(O)c1ccccc1C(=O)Nc1ccc(S(=O)(=O)Nc2nccs2)cc1`
med

Returns: class label. Input: CC1(C)O[C@@H]2C[C@H]3[C@@H]4C[C@H](F)C5=CC(=O)C=C[C@]5(C)[C@H]4[C@@H](O)C[C@]3(C)[C@]2(C(=O)CO)O1 [Flunisolide]
med

Class for CN[C@@H]1[C@H](O[C@H]2[C@H](O[C@H]3[C@H](O)[C@@H](O)[C@H](NC(=N)N)[C@@H](O)[C@@H]3NC(=N)N)O[C@@H](C)[C@]2(O)CO)O[C@@H](CO)[C@H](O)[C@H]1O [Dihydrostreptomycin sulfate] ?
lo

Please classify: CCCCCCCN(CC)CCCC(O)c1ccc(NS(C)(=O)=O)cc1 (stereo not given) [Ibutilide fumarate]
hi

Exercise: read the entry CC(=C(CCO)SSCC1CCCO1)N(C=O)Cc1cnc(C)nc1N (stereo in doubt) [Fursultiamine Hydrochloride] and state which class it falls under.
hi

Please report the category associated with `CN1C(=O)OC(C)(C)C1=O` , nothing else.
hi

# bin lookup: classify `CN/C(=N\CCSCc1nc[nH]c1C)NC#N` by its whole-cell filipin (z-score)
med

Band of N[C@@H](C(=O)N[C@@H]1C(=O)N2C(C(=O)O)=C(Cl)CS[C@H]12)c1ccccc1 [Cefaclor hydrate] ?
med

Band for CCCCCN(C)CCC(O)(P(=O)(O)O)P(=O)(O)O [Ibandronate sodium] ?
hi
